Values were extracted from patent US20250206828A1.

# system tested: T1, human adenosine A2A receptor (A2aR) (human, UniProt P29274 1-412)
# T1 construct: Assays used HEK293 cells stably overexpressing human A2aR (BPS Bioscience 79381), human A2aR-expressing CHO cells, or endogenous A2aR on human PBMC; also called human A2aR; hA2aR
# T1 sequence (P29274 whole entry): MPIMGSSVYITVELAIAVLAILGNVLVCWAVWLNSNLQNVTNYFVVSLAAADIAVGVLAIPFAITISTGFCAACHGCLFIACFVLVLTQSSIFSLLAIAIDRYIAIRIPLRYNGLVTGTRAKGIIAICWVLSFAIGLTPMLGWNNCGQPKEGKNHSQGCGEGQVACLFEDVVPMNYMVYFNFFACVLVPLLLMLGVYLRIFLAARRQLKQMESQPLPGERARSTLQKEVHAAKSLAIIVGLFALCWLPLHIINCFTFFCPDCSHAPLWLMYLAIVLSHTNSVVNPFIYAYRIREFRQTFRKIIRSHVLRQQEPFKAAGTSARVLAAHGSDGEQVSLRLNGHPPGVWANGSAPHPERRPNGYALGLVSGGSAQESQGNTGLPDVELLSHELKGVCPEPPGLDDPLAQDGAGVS
# test: flow cytometry, HEK293-hA2aR cells, supernatant 1 ug/ml
readout label: MFI (MFI)

binder	reading unit	experimental value
Hu3F6-H6/Hu3F6-L3 (antibody, human IgG1, V domains shown, Human IgG1 FES (L234F, L235E, P331S) and human Ig kappa constant domains) VH: EVQLVQSGAEVKKPGESLRISCKASGFAFTSYWMNWVRQMPGKGLEWIGRIDPSDSEAHYHHKFWGHATLSVDKSSSTVYLQWSSLKASDTAMYYCLRSLYGKGDYWGHGTTVTVSS VL: DVVMTQSPLSLPVTLGQPASISCRSSQSLVHRNGNTYLEWYQQRPGQSPRLLIYKVSNRFSGVPDRFSGSGSGTDFTLKISRVEAEDVGVYYCYQGSHVPLTFGGGTKVEIK	MFI	2090
Hu3F6-H2/Hu3F6-L4 (antibody, human IgG1, V domains shown, Human IgG1 FES (L234F, L235E, P331S) and human Ig kappa constant domains; also called Hu3F6 VH2/VL4) VH: EVQLVQSGAEVKKPGASVKVSCKTSGFAFTSYWMNWVRQAPGQGLEWMGRIDPSDSEAHYHHKFWGRVTMTVDTSTSTVYMELSSLRSEDTAVYYCLRSLYGKGDYWGHGTTVTVSS VL: DIVMTQTPLSLSVTPGQPASISCRSSQSLVHRNGNTYLEWYLQKPGQSPQLLIYKVSNRFSGVPDRFSGSGSGTDFTLKISRVEAEDVGVYYCYQGSHVPLTFGGGTKVEIK	MFI	1590
Hu3F6-H4/Hu3F6-L8 (antibody, human IgG1, V domains shown, Human IgG1 FES (L234F, L235E, P331S) and human Ig kappa constant domains) VH: EVQLVQSGAEVKKPGASVKVSCKTSGFAFTSYWMNWVRQAPGQGLEWIGRIDPSDSEAHYHHKFWGRATLTVDKSSSTVYMELSSLRSEDTAVYYCLRSLYGKGDYWGHGTTVTVSS VL: DVVMTQSPLSLPVTPGEPASISCRSSQSLVHRNGNTYLEWYLQKPGQSPQLLIYKVSNRFSGVPDRFSGSGSGTDFTLKISRVEAEDVGVYYCYQGSHVPLTFGGGTKVEIK	MFI	1710
Hu3F6-H5/Hu3F6-L6 (antibody, human IgG1, V domains shown, Human IgG1 FES (L234F, L235E, P331S) and human Ig kappa constant domains) VH: EVQLVQSGAEVKKPGASVKVSCKTSGFAFTSYWMNWVRQAPGQGLEWIGRIDPSDSEAHYAHKFWGRATLTVDKSSSTVYMELSSLRSEDTAVYYCLRSLYGKGDYWGHGTTVTVSS VL: DIVMTQTPPSLPVNPGEPASISCRSSQSLVHRNGNTYLEWYLQKPGQSPQLLIYKVSNRFSGVPDRFSGSGSGSDFTLKISWVEAEDVGVYYCYQGSHVPLTFGGGTKVEIK	MFI	1840
Hu3F6-H6/Hu3F6-L7 (antibody, human IgG1, V domains shown, Human IgG1 FES (L234F, L235E, P331S) and human Ig kappa constant domains) VH: EVQLVQSGAEVKKPGESLRISCKASGFAFTSYWMNWVRQMPGKGLEWIGRIDPSDSEAHYHHKFWGHATLSVDKSSSTVYLQWSSLKASDTAMYYCLRSLYGKGDYWGHGTTVTVSS VL: DVVMTQTPPSLPVNPGEPASISCRSSQSLVHRNGNTYLEWYLQKPGQSPQLLIYKVSNRFSGVPDRFSGSGSGSDFTLKISWVEAEDVGVYYCYQGSHVPLTFGGGTKVEIK	MFI	1170
